Reported values of R3 Selectivity for individual entries
# TARGET OR TEST SYSTEM: PACAP-R3 (Homo sapiens)
# Sequence (P41587 24-438): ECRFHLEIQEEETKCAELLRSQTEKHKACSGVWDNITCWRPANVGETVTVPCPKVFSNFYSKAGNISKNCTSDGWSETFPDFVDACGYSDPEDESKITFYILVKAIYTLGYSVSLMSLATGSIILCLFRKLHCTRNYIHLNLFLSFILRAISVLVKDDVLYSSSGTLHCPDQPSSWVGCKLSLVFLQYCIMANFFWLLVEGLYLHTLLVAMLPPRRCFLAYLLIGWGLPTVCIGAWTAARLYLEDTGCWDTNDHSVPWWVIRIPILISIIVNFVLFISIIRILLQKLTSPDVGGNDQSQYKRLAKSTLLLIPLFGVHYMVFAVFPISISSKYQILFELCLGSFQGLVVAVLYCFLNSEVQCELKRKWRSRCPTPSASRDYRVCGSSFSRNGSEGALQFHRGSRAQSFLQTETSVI
# PROTOCOL: Cyclic AMP SPA on CHO cells expressing PACAP R3
# Format: cell-based
# Parameters: expressed in transfected cells; host or cells: CHO cells (Geneticin selection)
# MEASUREMENT CONTEXT: ratio of EC50 at R2 versus EC50 at R3
No end group written: not given here.

{"SUBSTANCE": "HSDAVFTDNYTRLRKQMAKKKYLNSIKNRI [rR3P176]", "CENSORING QUALIFIER": "=", "R3 Selectivity": 150}
{"SUBSTANCE": "HSDAVFTDNYTRLRKQMAAKKYLNSIKNTR [Peptide R3P149]", "CENSORING QUALIFIER": "=", "R3 Selectivity": 80}
{"SUBSTANCE": "HSDAVFTDNYTRLRKQMAEKKYLNSIKNKR [Peptide R3P99]", "CENSORING QUALIFIER": "=", "R3 Selectivity": 40}
{"SUBSTANCE": "HSDGIFTDSYSRYRKKMAVKKYLAAVL-NH2 [PAC16]", "CENSORING QUALIFIER": "=", "R3 Selectivity": 1}
{"SUBSTANCE": "HSDAVFTDNYTRLRKQMAAKKYLNSILN [Peptide R3P47]", "CENSORING QUALIFIER": "=", "R3 Selectivity": 6}
{"SUBSTANCE": "HSDAVFTDNYTRLRKQMAAKKYLNSIWNKR [Peptide R3P132]", "CENSORING QUALIFIER": "=", "R3 Selectivity": 50}
{"SUBSTANCE": "HSDAVFTDNYTRLRKQMAAKKYLNSIKNVR [Peptide R3P150]", "CENSORING QUALIFIER": "=", "R3 Selectivity": 50}
{"SUBSTANCE": "HSDAVFTDNYTRLRKQLAVKKYLNDIKNGGT [Peptide R3P29]", "CENSORING QUALIFIER": ">", "R3 Selectivity": 200}
{"SUBSTANCE": "H-HSDAVFTDNYTRLRKQLAAKKYLNDIKKNQ [Peptide R3P35]", "CENSORING QUALIFIER": ">", "R3 Selectivity": 40}
{"SUBSTANCE": "HSDAVFTDNYTRLRKQMAAKKYLNSIKNKV [Peptide R3P169]", "CENSORING QUALIFIER": "=", "R3 Selectivity": 300}

###

In this section, each of the substances is paired with its reported pEC50.
# TARGET OR TEST SYSTEM: PACAP-R2 (Homo sapiens)
# Construct: expressed in transfected cells; host or cells: CHO cells
# Sequence (P32241 31-457, species assumed): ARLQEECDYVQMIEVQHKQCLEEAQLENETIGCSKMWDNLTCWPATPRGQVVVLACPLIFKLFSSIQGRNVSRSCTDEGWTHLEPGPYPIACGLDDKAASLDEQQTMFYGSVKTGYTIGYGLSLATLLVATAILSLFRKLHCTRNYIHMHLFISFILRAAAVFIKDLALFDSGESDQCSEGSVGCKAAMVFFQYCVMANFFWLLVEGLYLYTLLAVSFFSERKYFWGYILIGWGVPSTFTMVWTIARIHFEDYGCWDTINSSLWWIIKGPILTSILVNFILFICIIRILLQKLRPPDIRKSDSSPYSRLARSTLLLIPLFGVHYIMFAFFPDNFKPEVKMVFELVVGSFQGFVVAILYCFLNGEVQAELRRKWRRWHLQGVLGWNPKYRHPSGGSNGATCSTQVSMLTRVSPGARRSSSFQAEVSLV
# PROTOCOL: Cyclic AMP SPA on CHO cells transfected with PACAP-R2
# Assay type: cell-based
# MEASUREMENT CONTEXT: cAMP SPA, concentration at which 50% of maximum PACAP27 activity is achieved, NA = no detectable activities, read-out: R2 EC50
pEC50: −log10 of the molar value. No end group written: not given here.
ENDPOINT NAME: pEC50

{"SUBSTANCE": "HSDAVFTDNYTRLRKQVAAKKYLQSILNKR [Peptide R3P93]", "CENSORING QUALIFIER": "=", "READING": 8.22}
{"SUBSTANCE": "HSDAVFTDNYTRLRKQIAAKKYLQTIKK [Peptide R3P61]", "CENSORING QUALIFIER": "=", "READING": 6.96}
{"SUBSTANCE": "HSDAVFTDNYTRLRKQVAAKKYLQSIKK [Peptide R3P60]", "CENSORING QUALIFIER": "=", "READING": 6.92}
{"SUBSTANCE": "HSDAVFTDNYTRLRKQVAVKKYLQSILKK [Peptide R3P89]", "CENSORING QUALIFIER": "=", "READING": 9.05}
{"SUBSTANCE": "HSDAVFTDNYTRLRKQMAHKKYLNSIKNKR [Peptide R3P102]", "CENSORING QUALIFIER": "=", "READING": 6.52}
{"SUBSTANCE": "HSDAVFTDNYTRLRKQMAAKKYLNSIKNGR [Peptide R3P139]", "CENSORING QUALIFIER": "=", "READING": 7.70}
{"SUBSTANCE": "HSDAVFTDNYTRLRKQLAVKKYLNDIKNGGT [Peptide R3P29]", "CENSORING QUALIFIER": "<", "READING": 7.00}
{"SUBSTANCE": "H-HSDAVFTDNYTRLRKQMAAKKYLNSIQNKR [Peptide R3P127]", "CENSORING QUALIFIER": "=", "READING": 6.52}
{"SUBSTANCE": "HSDAVFTDNYTRLRKQMASKKYLNSIQNRI [rR3P188]", "CENSORING QUALIFIER": "=", "READING": 6.82}
{"SUBSTANCE": "HSDAVFTDNYTRLRKQMAAKKYLNSIFNKR [Peptide R3P120]", "CENSORING QUALIFIER": "=", "READING": 8.00}
{"SUBSTANCE": "HSDAVFTDNYTRLRKQMAAKKYLNSIKNLR [Peptide R3P142]", "CENSORING QUALIFIER": "=", "READING": 8.22}
{"SUBSTANCE": "HSDAVFTDNYTRLRKQMAAKKYLNSINNKR [Peptide R3P125]", "CENSORING QUALIFIER": "=", "READING": 7.22}
{"SUBSTANCE": "H-HSDGIFTDSYSRYRKQLAAKKYLADVKKGGT [Peptide R3P37]", "CENSORING QUALIFIER": "=", "READING": 7.15}
{"SUBSTANCE": "HSDAVFTDNYTRLRKQMAAKKYLNSIKNKE [Peptide R3P156]", "CENSORING QUALIFIER": "=", "READING": 7.00}
{"SUBSTANCE": "HSDAVFTDNYTRLRKQMAAKKYLNSIPNRI [rR3P179]", "CENSORING QUALIFIER": "=", "READING": 6.64}
{"SUBSTANCE": "HSDGIFTKSYSRYRKQMAVKKYLAAVL-NH2 [PAC8]", "CENSORING QUALIFIER": "=", "READING": 7.37}
{"SUBSTANCE": "HSDAVFTDNYTRLRKQMASKKYLNSIRNRI [rR3P193]", "CENSORING QUALIFIER": "=", "READING": 6.70}
{"SUBSTANCE": "HSDAVFTDNYTRLRKQMAGKKYLNSIPNRI [rR3P180]", "CENSORING QUALIFIER": "<", "READING": 7.00}
{"SUBSTANCE": "H-HSDGIFTDSYSRYRKQMAVKKYLAAVKQGGT-NH2 [Peptide R3P16]", "CENSORING QUALIFIER": "=", "READING": 7.85}
{"SUBSTANCE": "HSDAVFTDNYTRLRKQMAAKKYLNSIKNTR [Peptide R3P149]", "CENSORING QUALIFIER": "=", "READING": 7.40}
{"SUBSTANCE": "HSDAVFTDNYTRLRKQLAVKKYLNSILN [Peptide R3P46]", "CENSORING QUALIFIER": "=", "READING": 9.40}
{"SUBSTANCE": "HSDAVFTDNYTRLRKQMAVKKYLNSIKKKRY [Peptide R3P56]", "CENSORING QUALIFIER": "=", "READING": 7.40}
